- Tested on: HIV
- Method notes: microbe, parasite or virus in culture
- Type: cell-based
- Condition parameters: PANEL 7, 184V; read-out: IC50
Assay metric: IC50
Record the result as number plus unit.

// query GET /values?readout=IC50&item= C[C@H](Cn1cnc2c(N)ncnc21)OCP(=O)(O)O [TFV, (R)-9-(2-phosphonylmethoxypropyl)adenine]
// result 534 nM

----------
- Tested on: HIV-1 Subtype Isolates
- Method notes: Activity against HIV-1 subtype isolates in PBMCs, RT endpoint
- Condition parameters: Human immunodeficiency virus 1, PBMC, read-out: RT Endpoint IC50, isolate JV1083, subtype G
Assay metric: IC50 (nM)
Quick note: give the figure in nM, leave out the unit.

// query GET /values?readout=IC50&item= `CCCCCCCCCCCCCCCCOCCCOP(=O)(O)CO[C@H](C)Cn1cnc2c(N)ncnc21`
// result 2.32

----------
- Test system: HIV
- Method notes: microbe, parasite or virus in culture
- Format: cell-based
- Condition parameters: PANEL 33, T215Y; read-out: IC50
Assay metric: IC50
Record the result as number plus unit.

// query GET /values?readout=IC50&item= C[C@H](Cn1cnc2c(N)ncnc21)OCP(=O)(O)O [TFV, (R)-9-(2-phosphonylmethoxypropyl)adenine]
// result 1840 nM

----------
- Test system: HIV
- Method notes: microbe, parasite or virus in culture
- Type: cell-based
- Condition parameters: PANEL 40, M41L + L210W + T215Y + M184V
Assay metric: IC50 Fold Change
Keep it simple and answer with nothing but the number.

// query For the record OC[C@@H]1CC[C@H](n2cnc3c(O)ncnc32)O1 [ddI, 2′,3′-dideoxyinosine] , what value of IC50 Fold Change is listed for HIV?
// result 1.49

// query For the record Cc1cn([C@H]2C=C[C@@H](CO)O2)c(=O)[nH]c1=O [d4T, 2′,3′-didehydro-3′-deoxythymidine] , what value of IC50 Fold Change is listed for HIV?
// result 1.48

// query For the record Nc1nc(NC2CC2)c2ncn([C@H]3C=C[C@@H](CO)C3)c2n1 [ABC, abacavir] , what value of IC50 Fold Change is listed for HIV?
// result 4.60

// query For the record C[C@H](Cn1cnc2c(N)ncnc21)OCP(=O)(O)O [TFV, (R)-9-(2-phosphonylmethoxypropyl)adenine] , what value of IC50 Fold Change is listed for HIV?
// result 0.97

----------
For each entry below, report its IC50 Fold Change value.
- Test system: HIV
- Method notes: microbe, parasite or virus in culture
- Format: cell-based
- Condition parameters: PANEL 19, L74V + M184V
Keep it simple and answer with nothing but the number.

// query For the record `OC[C@@H]1CC[C@H](n2cnc3c(O)ncnc32)O1` , what value of IC50 Fold Change is listed for HIV?
// result 2.01

// query For the record `Nc1nc(NC2CC2)c2ncn([C@H]3C=C[C@@H](CO)C3)c2n1` , what value of IC50 Fold Change is listed for HIV?
// result 5.21

// query For the record Cc1cn([C@H]2C=C[C@@H](CO)O2)c(=O)[nH]c1=O [d4T, 2′,3′-didehydro-3′-deoxythymidine] , what value of IC50 Fold Change is listed for HIV?
// result 0.71

// query For the record C[C@H](Cn1cnc2c(N)ncnc21)OCP(=O)(O)O [TFV, (R)-9-(2-phosphonylmethoxypropyl)adenine] , what value of IC50 Fold Change is listed for HIV?
// result 0.29
